# Assay Overview: physchem
# Run Conditions: 1:5 DMSO/EtOH (v/v), 60 °C, organic solvent or mixture, thermodynamic from solid
Parameter: solubility

Request: So what does the record say about solubility for OC[C@@H](O)[C@@H](O)[C@H](O)[C@@H](O)CO [Sorbitol, D-sorbitol] ?
Response: 39 to 59 mg/mL

###

# Assay Overview: physchem
# Run Conditions: 2:1 MeOH/H2O + 5 vol.-% NH3 solution, aqueous with cosolvent or surfactant or cyclodextrin, thermodynamic from solid
Here the recorded solubility is given for each entry.

Request: So what does the record say about solubility for `OC[C@@H](O)[C@@H](O)[C@H](O)[C@@H](O)CO` ?
Response: > 250 mg/mL

Attention now turns to another entry.
Request: So what does the record say about solubility for Cc1c(OCC(F)(F)F)ccnc1C[S@@+]([O-])c1nc2ccccc2[nH]1 [SP134-FD-P1, dexlansoprazole sesquihydrate, reference compound] ?
Response: 100 to 200 mg/mL
